Target: human leukocyte elastase (Homo sapiens, UniProt P08246)
Sequence (P08246 30-267): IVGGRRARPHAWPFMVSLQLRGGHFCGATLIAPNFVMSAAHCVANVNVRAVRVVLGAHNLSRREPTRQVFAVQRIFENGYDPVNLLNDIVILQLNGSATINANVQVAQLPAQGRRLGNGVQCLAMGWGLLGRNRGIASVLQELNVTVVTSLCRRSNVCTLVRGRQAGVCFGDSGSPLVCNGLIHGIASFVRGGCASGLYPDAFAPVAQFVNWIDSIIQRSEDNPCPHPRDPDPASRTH
Test: elastase inhibition using human leukocyte elastase (kon and Ki*)
Format: biochemical
Conditions: rate of inactivation of enzyme; value is 10^-3 × kon; read-out: Elastase 10^-3 × kon
Here the recorded kon is given for each entry.
The reply should be a number in M⁻¹ s⁻¹, with the unit left off.

Recorded kon, per entry:
COc1cccc2c1C(=O)N(CCl)S2(=O)=O [Example 22A, 2-chloromethyl-4-methoxysaccharin]: 12400
O=C1c2ccccc2S(=O)(=O)N1CSc1nnc(SCCN2CCCCC2)s1 [Example 33C]: 200
CCc1cccc2c1C(=O)N(CSc1nnnn1CC(=O)N(C)C)S2(=O)=O [Example 30AV]: 7600

// moving on: another record for kon
stdin: Report kon, nothing else, for this compound: O=C1c2c(-c3ccccc3)cccc2S(=O)(=O)N1CSc1nnnn1-c1ccccc1 [Example 30BC]
stdout: 5800

Recorded values, source patent US5874432A.
